Tested on: primary CD4+ T cells
Assay: in vitro
Details: ratio TC50 to Nef IC50
RECORDED_METRIC: Viability:Nef (therapeutic window separating Nef IC50 and TC50) (fold)

molecule="C/C=C/[C@H]1O[C@@H]([C@@H](C)[C@H](O)[C@H](C)[C@H]2OC(=O)/C(OC)=C/C(C)=C/[C@@H](C)[C@@H](O)[C@@H](CC)[C@@H](O)[C@H](C)C/C(C)=C/C=C/[C@@H]2OC)C[C@@H](O[C@@H]2C[C@H](O)[C@@H](O)[C@H](C)O2)[C@@H]1C [Compound S62, 21-Deoxy CMC]" numeric_value=1.8
molecule="C/C=C/[C@H]1O[C@@](O)([C@@H](C)[C@H](O)[C@H](C)[C@H]2OC(=O)/C(OC)=C/C(C)=C/[C@@H](C)[C@@H](O)[C@@H](CC)[C@@H](O)[C@H](C)C/C(C)=C/C=C/[C@@H]2OC)C[C@@H](OC(C)=O)[C@@H]1C [Compound S50, 23-Acetyl CMF]" numeric_value=5.8
molecule="C#CCCC(=O)O[C@@H]1C[C@H]([C@@H](C)[C@H](O)[C@H](C)[C@H]2OC(=O)/C(OC)=C/C(C)=C/[C@@H](C)[C@@H](O)[C@@H](C)C/C(C)=C/C=C/[C@@H]2OC)O[C@H](C(C)C)[C@H]1C [Compound S28]" numeric_value=1.7
molecule="CC=CC1OC(O)(C(C)C(O)C(C)C2OC(=O)C(OC)=CC(C)=CC(C)C(O)C(CC)C(O)C(C)CC(C)=CC=CC2OC)CC(OC2CC(O)C(OC(N)=O)C(C)O2)C1C (stereo not shown) [Compound 1, Concanamycin A, reference compound]" numeric_value=6.6
molecule="CCCCCCCCC(=O)O[C@@H]1C[C@](O)([C@@H](C)[C@H](O)[C@H](C)[C@H]2OC(=O)/C(OC)=C/C(C)=C/[C@@H](C)[C@@H](O)[C@@H](C)C/C(C)=C/C=C/[C@@H]2OC)O[C@H](C(C)C)[C@H]1C [Compound S11]" numeric_value=1.1
molecule="C/C=C/[C@H]1O[C@@](O)([C@@H](C)[C@H](O)[C@H](C)[C@H]2OC(=O)/C(OC)=C/C(C)=C/[C@@H](C)[C@@H](O)[C@@H](C)[C@@H](OC(=O)CCCC)[C@H](C)C/C(C)=C/C=C/[C@@H]2OC)C[C@@H](O[C@@H]2C[C@H](OC(=O)CCCC)[C@@H](OC(N)=O)[C@H](C)O2)[C@@H]1C [Compound 10, 3′,9-Dipentanoate Concanamycin B]" numeric_value=5.8
molecule="C/C=C/[C@H]1O[C@@](O)([C@@H](C)[C@H](O)[C@H](C)[C@H]2OC(=O)/C(OC)=C/C(C)=C/[C@@H](C)[C@@H](O)[C@@H](C)[C@@H](O)[C@H](C)C/C(C)=C/C=C/[C@@H]2OC)C[C@@H](O[C@@H]2C[C@H](OC(=O)CCCCCCCC)[C@@H](OC(N)=O)[C@H](C)O2)[C@@H]1C [Compound 11, 3-nonanoate Concanamycin B]" numeric_value=4.3

====

// CC50 lookup, one value per entry
Experiment: in vitro
Details: human
RECORDED_METRIC: CC50 (nM)

molecule="CO/C1=C\\C(C)=C\\[C@@H](C)[C@@H](O)[C@@H](C)C/C(C)=C/C=C/[C@H](OC)[C@@H]([C@@H](C)[C@@H](O)[C@H](C)[C@@]2(OC)C[C@@H](O)[C@H](C)C(C(C)C)O2)OC1=O (stereo partly drawn)" unit_spec=nM numeric_value=13
molecule=C/C=C/[C@H]1O[C@@](O)([C@@H](C)[C@H](O)[C@H](C)[C@H]2OC(=O)/C(OC)=C/C(C)=C/[C@@H](C)[C@@H](O)[C@@H](CC)[C@@H](O)[C@H](C)C/C(C)=C/C=C/[C@@H]2OC)C[C@@H](O[C@@H]2C[C@H](OC(C)=O)[C@@H](OC(C)=O)[C@H](C)O2)[C@@H]1C unit_spec=nM numeric_value=1.3
molecule=C/C=C/[C@H]1O[C@@](O)([C@@H](C)[C@H](O)[C@H](C)[C@H]2OC(=O)/C(OC)=C/C(C)=C/[C@@H](C)[C@@H](O)[C@@H](CC)[C@@H](O)[C@H](C)C/C(C)=C/C=C/[C@@H]2OC)C[C@@H](O[C@@H]2C[C@H](OC(C)=O)[C@@H](OC(N)=O)[C@H](C)O2)[C@@H]1C unit_spec=nM numeric_value=1.6
